- MEASUREMENT_NOTES: qHTS RealTime-Glo MT Cell Viability Assay in HepG2 cells - 16 hour (AID 1224885); further: nearly all actives have a fitted effect of over 50% in size
- MEASUREMENT_CONTEXT: RealTime-Glo luminescence; series mostly up to 76.8 µM
Records with an inconclusive call do not appear. Activity calls are given as the source filed them. The call rests on the fitted dose curve; in most records, active means well fitted cell-killing curve with a large enough effect in the repeat runs; inconclusive means weak or mixed curves; inactive means flat fitted curve, though single readings scatter.
Just give me one of these, please: active, inactive

Hi, do you know how C(=C/c1ccccc1)/c1ccccc1 came out in this test?
inactive

Hi, do you know how CC1=CCC(=O)O1 came out in this test?
inactive

Hi, do you know how CCC(=O)OCCc1ccccc1 came out in this test?
inactive

Hi, do you know how C/C=C/c1ccc(OC)c(OC)c1 came out in this test?
inactive

Hi, do you know how COCC(=O)O[C@]1(CCN(C)CCCc2nc3ccccc3[nH]2)CCc2cc(F)ccc2[C@@H]1C(C)C came out in this test?
active

Hi, do you know how NC(=O)c1nc(-c2cccc(-c3cc(F)ccc3OCC(F)(F)C(F)(F)F)c2)n[nH]1 came out in this test?
inactive

Hi, do you know how CC(C)(c1cc(Br)c(O)c(Br)c1)c1cc(Br)c(O)c(Br)c1 came out in this test?
inactive

====

- MEASUREMENT_NOTES: qHTS RealTime-Glo MT Cell Viability Assay in HepG2 cells - 24 hour (AID 1224867); further: nearly all actives have a fitted effect of over 50% in size
- MEASUREMENT_CONTEXT: RealTime-Glo luminescence; series mostly up to 76.8 µM
Records with an inconclusive call do not appear. Activity calls are given as the source filed them. Calls follow the shape of the dose curve; as a rule, active = well fitted cell-killing curve with a large enough effect in the repeat runs; inconclusive = weak or mixed curves; inactive = flat fitted curve, though single readings scatter.
Just give me one of these, please: active, inactive

Hi, do you know how CC1(C)C(=O)N(Br)C(=O)N1Br came out in this test?
inactive

Hi, do you know how Cc1ccc(O)cn1 came out in this test?
inactive

Hi, do you know how C=CC(C)C#N (stereo unspecified) came out in this test?
inactive

Hi, do you know how O=C1NCN(c2ccccc2)C12CCN(CCCC(c1ccc(F)cc1)c1ccc(F)cc1)CC2 came out in this test?
active

Hi, do you know how CCc1ccc(O)c(C(C)(C)C)c1 came out in this test?
inactive

Hi, do you know how CC1(C)COCN1 came out in this test?
inactive

Hi, do you know how CC1CCCNC1 (stereo unspecified) came out in this test?
inactive

Hi, do you know how O=C(Oc1ccccc1)c1cccc(C(=O)Oc2ccccc2)c1 came out in this test?
inactive

Hi, do you know how COCC(=O)O[C@]1(CCN(C)CCCc2nc3ccccc3[nH]2)CCc2cc(F)ccc2[C@@H]1C(C)C came out in this test?
active

Hi, do you know how CC(=O)OC1CCCCC1 came out in this test?
inactive

Hi, do you know how C[Si](C)O[Si](C)C came out in this test?
inactive

Hi, do you know how COc1cccc(CCc2ccccc2OCC(CN(C)C)OC(=O)CCC(=O)O)c1 (stereo unspecified) came out in this test?
inactive

Hi, do you know how CC(C)=CCCC(C)O (stereo unspecified) came out in this test?
inactive

Hi, do you know how C=CC(=C)CCC=C(C)C came out in this test?
inactive

Hi, do you know how C/C=C/C=N/NC(=O)c1ccncc1 came out in this test?
inactive

Hi, do you know how ClC/C=C\CCl came out in this test?
inactive

Hi, do you know how CO[Si](CCC1CCC2OC2C1)(OC)OC (stereo unspecified) came out in this test?
inactive

Hi, do you know how CCCCOc1ccc(C(=O)CCN2CCCCC2)cc1 came out in this test?
active

Hi, do you know how CCOC(=O)[C@@](C)(N)Cc1ccc(O)c(O)c1 came out in this test?
inactive

Hi, do you know how CC1=CCC(=O)O1 came out in this test?
inactive

Hi, do you know how O=S(=O)(O)CCCN1CCOCC1 came out in this test?
inactive
